- TESTED_TARGET: T1, Human CD3eg linker (human)
- T1 construct: Single-chain soluble construct; also called recombinant human CD3
- T1 chain: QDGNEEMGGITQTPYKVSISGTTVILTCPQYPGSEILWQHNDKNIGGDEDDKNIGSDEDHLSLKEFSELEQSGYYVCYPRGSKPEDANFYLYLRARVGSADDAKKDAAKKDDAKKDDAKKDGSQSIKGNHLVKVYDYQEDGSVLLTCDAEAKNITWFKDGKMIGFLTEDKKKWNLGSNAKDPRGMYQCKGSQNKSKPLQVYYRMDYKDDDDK
- PROTOCOL_NOTES: SPR Biacore 8K, Ab captured on anti-human Fc, CD3 as analyte, 25 C

[
  {
    "BINDER": "H1573L0581 (antibody, V domains shown, Dual-Ig with an Fc; also called DualAE07; dBBDu183H1573/dBBDu072L0581) VH: QVQLVESGGGLVQPGRSLRLSCAASGFKFSNVWFHWVRQAPGKGLEWVAQIKDYYNAYAAYYAPSVKGRFTISRDDSKNSIYLQMNSLKTEDTAVYYCHYVHYASASTLLPAFGVDAWGQGTTVTVSS VL: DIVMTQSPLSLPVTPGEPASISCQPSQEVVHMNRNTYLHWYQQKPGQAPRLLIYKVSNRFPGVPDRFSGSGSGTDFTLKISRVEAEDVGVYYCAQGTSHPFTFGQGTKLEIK",
    "kon": "121000 M⁻¹ s⁻¹"
  },
  {
    "BINDER": "H1572L0581 (antibody, V domains shown, Dual-Ig with an Fc; also called DualAE26; dBBDu183H1572/dBBDu072L0581) VH: QVQLVESGGGLVQPGRSLRLSCAASGFKFSNVWFHWVRQAPGKGLEWVAQIKDKYNAYAAYYAPSVKGRFTISRDDSKNSIYLQMNSLKTEDTAVYYCHYVHYASASTLLPAEGVDAWGQGTTVTVSS VL: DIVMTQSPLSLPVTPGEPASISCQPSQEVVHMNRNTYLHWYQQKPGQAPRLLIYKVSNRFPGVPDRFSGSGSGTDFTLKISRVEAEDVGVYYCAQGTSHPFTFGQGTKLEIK",
    "kon": "97700 M⁻¹ s⁻¹"
  }
]

Where do the numbers come from? From patent US20230147840A1.
